Molecular target: mushroom tyrosinase
Test: Test of anthocyanidin compounds for inhibiting tyrosinase activity (Example 11, IC50)
Format: biochemical
Details: 25° C., L-Dopa, 475 nm
property.label: pIC50
For clarity, pIC50 is expressed as the negative log10 of concentration in mol/L.

// below: answered compounds
# compound, recorded.number
records = [
    ("OC[C@H]1O[C@@H](Oc2cc3c(O)cc(O)cc3[o+]c2-c2ccc(O)c(O)c2)[C@H](O)[C@@H](O)[C@@H]1O [Cyanidin-3-glucoside, reference compound]", 4.08),
    ("C[C@@H]1O[C@@H](Oc2cc3c(O)cc(O)cc3[o+]c2-c2ccc(O)c(O)c2)[C@H](O)[C@H](O)[C@H]1O.[Cl-] [C3R, cyanidin-3-rhamnoside]", 4.48),
    ("COc1cc(-c2[o+]c3cc(O)cc(O)c3cc2O)cc(OC)c1O [Malvidin chloride]", 6.40),
]

The record that follows has no pIC50 shown yet.
Incoming: Which pIC50 reading was recorded for the compound Oc1cc(O)c2cc(O)c(-c3ccc(O)c(O)c3)[o+]c2c1.[Cl-] [Cyanidin chloride] ?
Outgoing: 4.96

====

Listing of entries alongside the reported pIC50.
Target: mushroom tyrosinase
Assay: Test of anthocyanidin compounds for inhibiting tyrosinase activity (Example 11, IC50)
Format: biochemical
Details: 25° C., L-Dopa, 475 nm
pIC50 is defined as minus the log10 of a concentration measured in mol/L.

# compound, experimental.system, recorded.number
measured = [
    ("Oc1cc(O)c2cc(O)c(-c3cc(O)c(O)c(O)c3)[o+]c2c1 [Delphinidin chloride]", "mushroom tyrosinase", 4.79),
]

Incoming: // lookup pIC50 for CC1O[C@@H](Oc2cc3c(O)cc(O)cc3[o+]c2-c2ccc(O)cc2)[C@@H](O)C(O)[C@H]1O (stereo partly shown) [P3R, pelargonidin-3-rhamnoside]
Outgoing: 5.24

Incoming: Request the reported pIC50 associated with Oc1ccc(-c2[o+]c3cc(O)cc(O)c3cc2O)cc1 [Pelargonidin chloride]
Outgoing: 4.70
